# Tested on: SK-MEL-2 melanoma
# assayExplanation: NCI-60 one-dose screen, 48 h
# recordedConditions: 10 µM unless noted
The panel holds about 83,000 compounds, 20% with a hit somewhere; the sample as a whole holds those more often. Active and inactive are the calls of the source. The calls were made as follows: active = growth percent below 10; inactive = the rest.
Answer with one of the outcomes given here: YES = active, NO = inactive

Please review the following examples before continuing.
Query string: # outcome recorded in this test, key = CN1CCN(c2ccc3c(c2)nc(NNC(=O)c2cnccn2)c2cccn23)CC1
Result string: YES

Query string: For S=c1c2ccccc2nc2n1CCc1c-2[nH]c2ccccc12 , what call appears in the results of this test?
Result string: NO

---
Query string: Just curious, what result did COc1ccc(/C=C/c2n(Cc3ccc4ccccc4c3)c3ccccc3[n+]2Cc2ccc3ccccc3c2)cc1 get here?
Result string: YES

====

# Test system: SF-268 CNS
# assayExplanation: NCI-60 one-dose screen, 48 h
# recordedConditions: 10 µM unless noted
About 83,000 compounds went through this panel and 20% of them were active in at least one assay; those are over-represented in the sample as a whole. Activity calls are given as the source filed them. The calls were made as follows: active = growth percent below 10; inactive = the rest.
Outcomes you can answer with include only these: active, inactive

Known results for molecules:
Query string: I would be grateful if you could indicate the recorded call for COc1cc2c(c(OC)c1OC)C(=O)CC(c1cccc(NC(=O)c3cc(NC(=O)[C@H](C)N)ccc3Cl)c1)O2 (stereo partly drawn) .
Result string: inactive

Query string: State the result this test recorded for C=C1CCC2C3(C)COC(c4ccc(F)cc4)OC3CCC2(C)C1CC(O)C1=CCOC1=O (stereo not drawn) .
Result string: inactive

Query string: // return assay outcome for C#CCOc1cc(N(CC)CC)ccc1C(C(=O)NC(C)(C)C)N(C(=O)C1CCc2cc(F)ccc2O1)c1ccc(F)c(Cl)c1 (stereo not drawn)
Result string: inactive

Query string: Recorded call for CC(=O)Nc1cccc(Nc2nc(N[C@H]3CCCc4ccccc43)c3ccccc3n2)c1 ?
Result string: inactive

Query string: Test call, this molecule: CSc1ccccc1NC(=O)c1ccc2nnn(/C(C#N)=C/c3ccccn3)c2c1
Result string: active

---
Query string: Dear all, I need the recorded test outcome for OCC1(CCCc2ccccc2)CCCN(c2nccc3ccccc23)C1 (stereo not drawn) , thank you.
Result string: inactive

Query string: Each molecule tested received a call. Report the one for CN(C)c1nc(NCCNS(=O)(=O)c2ccc(C3=Nc4c(N)nc(N)nc4NC(c4ccc(Cl)cc4)C3)cc2)nc(Nc2ccc(F)cc2)n1 (stereo not drawn) .
Result string: inactive

Query string: Dear all, I need the recorded test outcome for CC(=O)c1c(N)c(C#N)cn1-c1ccc(Cl)cc1Cl , thank you.
Result string: inactive

Query string: Kindly provide the recorded test outcome for the following molecule: O=C(Cn1c(/C=C/c2ccccc2)nc2ccccc2c1=O)Nc1ccc(Cl)cc1
Result string: inactive

Query string: For CCCCNC(=S)Nc1ccc(OCc2nc3ccccc3[nH]2)cc1 , which call appears in the assay record?
Result string: inactive

Query string: Which outcome was assigned to COc1ccc(-c2c(Nn3cnnn3)no[n+]2[O-])cc1 in this test?
Result string: inactive

====

# Test system: CAKI-1 renal
# assayExplanation: NCI-60 one-dose screen, 48 h (100 = growth as untreated, 0 = no growth, -100 = all killed)
# recordedConditions: 10 µM unless noted
About 83,000 compounds went through this panel and 20% of them were active in at least one assay; those are over-represented in the sample as a whole.
Label condition met for high-side growth (at or above 50%) and condition not met for low-side growth (below it).

A selection of reference data follows.
Query string: Item O=C(NNc1nc2cc(F)ccc2n2c(CN3CC4CNCC4C3)ccc12)c1ccncn1 (stereo not drawn) with growth of 50% or above?
Result string: condition not met

Query string: Evaluate COc1c(F)ccc(C(=O)Nc2ccc3nc(NC(=O)C4CCCN(S(=O)(=O)c5ccc(Br)s5)C4)sc3c2)c1F (stereo not drawn) : growth at minimum 50%?
Result string: condition met

Query string: Form field: growth at least 50%? Entry: CCN(CC)CCOc1ccc(Nc2ncc3cc(-c4ccc(O)c(C#N)c4)c(=O)n(C)c3n2)cc1
Result string: condition not met

Query string: Test whether the compound COC(OC)C1=C(C)OC(N)=C(C#N)C12C(=O)Nc1ccccc12 (stereo not drawn) records growth of 50% or higher.
Result string: condition met

More entries:
Query string: Check this compound for growth at or above 50%: Clc1ccc(-c2ccc(OCCCN3CCN(c4ccncc4)CC3)cc2)cc1
Result string: condition met

Query string: Say whether Cc1cc(=O)oc2cc(OCCCOc3ccc(/C=C/C(=O)Nc4ccccc4N)cc3)ccc12 shows growth of 50% or more.
Result string: condition not met

Query string: Dear colleague, could you confirm whether CCCCCCCCc1ccc(C(=O)Nc2cccc(P(=O)(O)O)c2)cc1 has growth at or above 50%?
Result string: condition met

====

# Test system: SK-MEL-2 melanoma
# assayExplanation: NCI-60 one-dose screen, 48 h
# recordedConditions: 10 µM unless noted
About 83,000 compounds went through this panel and 20% of them were active in at least one assay; those are over-represented in the sample as a whole. Activity calls are given as the source filed them. The calls were made as follows: active = growth percent below 10; inactive = the rest.
Permitted responses: active, inactive

Consider the worked cases shown below.
Query string: I'd appreciate the recorded outcome for N#Cc1c(-c2ccc(Cl)cc2)nc2n[nH]c(-c3ccc(Cl)cc3)c2c1-c1cccs1 from this test.
Result string: inactive

Query string: # outcome recorded in this test, key = Cc1cc(C)cc(NC(=O)Cn2cc(COn3nnc4ccccc43)nn2)c1
Result string: inactive

Query string: Outcome logged for CCCSc1nc(Nc2ccc(S(N)(=O)=O)cc2)c(C#N)c(-c2ccc(Cl)cc2)n1 in this assay:
Result string: inactive

Query string: Per the records of this test, what outcome belongs to COc1ccc(-c2ccnc(SCc3cc4cc(Cl)ccc4[nH]c3=O)n2)cc1 ?
Result string: inactive

Query string: Returns: the outcome recorded for CC(C)(C)OC(=O)/C=C/c1cccc2c1C(=O)NC(C)(c1cc3cc(Cl)ccc3oc1=O)N2 (stereo not given) in this assay.
Result string: inactive

***
Query string: Per the records of this test, what outcome belongs to COc1cc(/C=C2\C(=N)N=C(SCc3nc4ccccc4[nH]3)NC2=O)ccc1O ?
Result string: inactive

====

What growth was measured for each of the following?
# Tested on: HCC-2998 colon
# assayExplanation: NCI-60 one-dose screen, 48 h (100 = growth as untreated, 0 = no growth, -100 = all killed)
# recordedConditions: 10 µM unless noted
This is part of a sample that, as a whole, favours compounds with a hit. Of some 83,000 tested, about 20% had one in any assay.
Give bare numbers, in %.

Give measured growth for every item shown.
1. CN1CCN(Cc2ccc(C(=O)Nc3cccc(C#Cc4cccc5[nH]nc(N)c45)c3)cc2C(F)(F)F)CC1
2. CN(C)c1nc(NCCNS(=O)(=O)c2ccc(C3=Nc4c(N)nc(N)nc4NC(c4ccc(Cl)cc4)C3)cc2)nc(Nc2ccc(F)cc2)n1 (stereo not given)
3. C#CCOc1cc(N(CC)CC)ccc1C(C(=O)NC(C)(C)C)N(C(=O)C1CCc2cc(F)ccc2O1)c1ccccc1Br (stereo not given)
4. CC12CC[C@@H]3[C@]4(C)COC(c5cn[nH]c5-c5cccc(Cl)c5)O[C@@H]4CC[C@@]3(C)[C@@H]1CC(C1=CCOC1=O)O2 (stereo not given in full)
5. CCOC(=O)/C=C/c1cccc2c1C(=O)NC(C)(c1cc3cc(Cl)ccc3oc1=O)N2 (stereo not given)
6. COc1ccc2[nH]cc(-c3cc(N)n4nc(-c5cn(C)c6ccccc56)cc4n3)c2c1
7. O=C(Cn1c2c(sc1=O)[C@H]1[C@@H](O)[C@@H](O)[C@H](O)[C@@H]1CS2)N1CCOCC1

Result string:
[-93.6, -0.0718, 93.5, 40.7, 38.7, -81.3, 111]

Please give growth for each item listed below.
1. S=C(Nc1ccccc1)Nc1ccc(OCc2nc3ccccc3[nH]2)cc1
2. C#CCOc1ccc(/C=N/Nc2nc(-c3cc4cc(OC)ccc4oc3=O)cs2)cc1OC

Result string:
17.3
84.4

Below are 6 compounds. Give each one its growth.
1. c1ccc(-c2csc(Nc3cccc(Nc4nc(-c5ccccc5)cs4)c3)n2)cc1
2. CC1=C(C(=O)OCc2ccccc2)C(c2ccc(-n3cncn3)cc2)n2c(nc3ccccc32)N1 (stereo not given)
3. Cc1ncsc1-c1ccc(CNC(=O)[C@@H]2C[C@@H](O)CN2C(=O)[C@@H](NC(=O)C2(F)CC2)C(C)(C)C)c(OCCOCCOCCOCCOc2nc(Nc3cc(S(C)(=O)=O)ccc3N[C@@H](c3cccc4c3OC(F)(F)O4)c3ncccc3Cl)nc(N3CCNCC3)n2)c1
4. Cn1cc(-c2cc3nc(-c4cn(C)c5ncccc45)cc(N)n3n2)c2cc(Cl)ccc21
5. C(=C\c1cc(/C=C/c2ccccc2)c2ccccc2n1)/c1ccccc1
6. Cc1cccc(-c2nc(Nc3cccc(S(N)(=O)=O)c3)c3ccccc3n2)c1

Result string:
1. 35.5
2. 75.4
3. 71.2
4. -97.8
5. 101
6. -1.53

Please state, for each entry, its recorded growth.
1. COc1cc(C2CC(c3cc(OC)c(OC)c(OC)c3)=Nc3c(N)nc(N)nc3N2)ccc1Oc1nc(NCCO)nc(N2CCOCC2)n1 (stereo not given)
2. COc1cc(/C=C/C(=O)c2ccc(C)cc2)ccc1Oc1nc(Nc2ccc(F)cc2)nc(N(C)C)n1
3. Cc1cc(=O)oc2cc(OCCCOc3ccc(/C=C/C(=O)Nc4ccccc4N)cc3)ccc12
4. COc1cccc(-c2nc(Nc3ccc(S(N)(=O)=O)cc3)c3ccccc3n2)c1
5. Clc1cccc(Cl)c1/C=C/c1cc(/C=C/c2ccc(Br)cc2)c2ccccc2n1

Result string:
1: 115; 2: 91.9; 3: 27.3; 4: 6.44; 5: 118

Attribution: PubChem BioAssay (NCI)
